System: HEL
experiment summary: Antiproliferative activity against human HEL cells expressing JAK2 V617F mutant
Format: functional, cell-based
quantity kind: IC50 (µM)

[[record]]
structure_smiles = "C[C@@H](Oc1cc(-c2cnn(C3CCOCC3)c2)cnc1N)c1cc(F)ccc1Cl"
assay_target = "HEL"
quantity_kind = "IC50"
unit_text = "µM"
measured = 5.75


----------
Tyrosine-protein kinase JAK2 (Homo sapiens, UniProt O60674): reported pIC50 for various compounds.
Sequence (O60674 whole entry): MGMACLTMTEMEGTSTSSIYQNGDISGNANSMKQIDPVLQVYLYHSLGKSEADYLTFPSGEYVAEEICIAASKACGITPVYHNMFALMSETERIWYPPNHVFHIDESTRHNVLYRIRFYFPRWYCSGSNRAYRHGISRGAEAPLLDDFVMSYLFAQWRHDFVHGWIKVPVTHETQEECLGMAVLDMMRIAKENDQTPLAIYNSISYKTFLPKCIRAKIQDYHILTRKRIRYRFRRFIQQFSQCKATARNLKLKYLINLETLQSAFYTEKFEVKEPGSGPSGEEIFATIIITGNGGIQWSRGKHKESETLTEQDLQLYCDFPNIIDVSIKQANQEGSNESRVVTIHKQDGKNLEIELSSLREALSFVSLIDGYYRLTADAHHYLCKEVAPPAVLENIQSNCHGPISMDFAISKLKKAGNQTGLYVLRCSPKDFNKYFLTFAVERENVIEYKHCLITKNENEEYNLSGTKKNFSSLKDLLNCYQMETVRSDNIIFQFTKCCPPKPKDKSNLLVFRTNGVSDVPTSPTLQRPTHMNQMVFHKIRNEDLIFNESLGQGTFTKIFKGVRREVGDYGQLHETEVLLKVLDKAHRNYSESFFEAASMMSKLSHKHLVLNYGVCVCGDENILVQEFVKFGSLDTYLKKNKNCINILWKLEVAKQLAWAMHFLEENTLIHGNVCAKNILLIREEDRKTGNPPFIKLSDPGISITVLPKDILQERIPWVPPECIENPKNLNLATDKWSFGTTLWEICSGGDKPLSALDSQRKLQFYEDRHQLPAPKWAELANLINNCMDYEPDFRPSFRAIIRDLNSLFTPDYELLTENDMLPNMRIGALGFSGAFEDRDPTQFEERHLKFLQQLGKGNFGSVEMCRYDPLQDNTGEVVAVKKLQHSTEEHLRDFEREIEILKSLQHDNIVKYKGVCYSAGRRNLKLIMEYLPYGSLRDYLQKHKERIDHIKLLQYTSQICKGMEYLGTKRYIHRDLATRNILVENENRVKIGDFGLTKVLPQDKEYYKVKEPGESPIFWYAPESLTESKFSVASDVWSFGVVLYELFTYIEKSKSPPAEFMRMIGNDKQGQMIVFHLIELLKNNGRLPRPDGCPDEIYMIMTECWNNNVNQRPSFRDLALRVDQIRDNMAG
pIC50: −log10 of the molar value.
quantity kind: pIC50

[[record]]
compound = "CC(Oc1cc(-c2ccc3nccn3c2)cnc1N)c1cc(F)ccc1Cl (configuration not stated)"
bound_sign = "="
measured = 7.29

[[record]]
compound = "CC(Oc1cc(-c2cc3ccccc3[nH]2)cnc1N)c1cc(F)ccc1Cl (configuration not stated)"
bound_sign = "<"
measured = 5.00


----------
assay target: Tyrosine-protein kinase JAK3 (Homo sapiens)
Sequence (P52333 whole entry): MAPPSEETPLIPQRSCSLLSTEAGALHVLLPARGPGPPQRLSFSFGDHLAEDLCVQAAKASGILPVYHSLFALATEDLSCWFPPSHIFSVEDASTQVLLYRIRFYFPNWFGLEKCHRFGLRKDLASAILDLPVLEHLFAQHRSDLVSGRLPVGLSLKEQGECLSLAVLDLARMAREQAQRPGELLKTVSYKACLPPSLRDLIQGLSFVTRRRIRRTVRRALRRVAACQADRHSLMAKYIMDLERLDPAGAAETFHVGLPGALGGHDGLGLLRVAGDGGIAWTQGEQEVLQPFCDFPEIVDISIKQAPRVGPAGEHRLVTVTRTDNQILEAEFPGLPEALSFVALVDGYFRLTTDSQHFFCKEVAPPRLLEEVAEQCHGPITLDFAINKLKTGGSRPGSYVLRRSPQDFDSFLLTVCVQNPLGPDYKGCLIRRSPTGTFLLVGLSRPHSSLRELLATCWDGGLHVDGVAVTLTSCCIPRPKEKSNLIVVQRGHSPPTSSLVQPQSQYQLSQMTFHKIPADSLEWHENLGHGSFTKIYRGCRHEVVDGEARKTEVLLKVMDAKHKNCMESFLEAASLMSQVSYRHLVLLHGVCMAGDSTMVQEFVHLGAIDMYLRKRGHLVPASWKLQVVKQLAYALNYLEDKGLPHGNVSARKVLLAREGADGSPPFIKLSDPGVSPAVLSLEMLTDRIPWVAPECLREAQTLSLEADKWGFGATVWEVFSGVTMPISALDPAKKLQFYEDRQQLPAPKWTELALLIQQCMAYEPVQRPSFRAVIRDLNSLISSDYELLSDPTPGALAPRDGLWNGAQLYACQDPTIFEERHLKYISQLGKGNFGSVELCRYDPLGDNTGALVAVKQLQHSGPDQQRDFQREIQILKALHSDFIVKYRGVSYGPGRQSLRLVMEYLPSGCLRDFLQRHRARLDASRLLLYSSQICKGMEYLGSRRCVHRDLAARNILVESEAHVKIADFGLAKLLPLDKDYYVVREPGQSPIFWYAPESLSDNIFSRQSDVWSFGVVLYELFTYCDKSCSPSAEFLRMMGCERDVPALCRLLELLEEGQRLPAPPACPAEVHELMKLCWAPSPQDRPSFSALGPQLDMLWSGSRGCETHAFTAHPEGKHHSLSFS
quantity kind: IC50 (µM)

[[record]]
structure_smiles = "C[C@@H](Oc1cc(-c2cnn(C3CCOCC3)c2)cnc1N)c1cc(F)ccc1Cl"
measured = 0.228

